Provenance of the data: PubChem BioAssay AID1159580

// reported normalized growth for each item listed
# testDetails: chemical genetic growth profiling, strain panel (AID 1159580);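 also: tested at 20 µM; growth read once vehicle control cultures reached saturation at 30 °C; 1 = growth at the plate median or of vehicle wells; lower values mean less growth of the strain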
# protocolConditions: S. cerevisiae deletion strains, growth OD, locus YOR270C, strain vph1, hits give low values
The campaign covered roughly 5,500 compounds. About 2,000 (36%) were called active. Another 18% or so got no clear call; they are omitted. The list shows a part of the results.
assayEndpoint: normalized growth

- CCCC(=O)Nc1ccc(OCC(O)CNC(C)C)c(C(C)=O)c1 (configuration not stated): 1.07
- CCC[C@@H]1C[C@@H](C(=O)N[C@H]([C@H]2O[C@H](SC)[C@H](O)[C@@H](O)[C@H]2O)[C@H](C)O)N(C)C1: 0.948
- O=C1NS(=O)(=O)c2ccccc21: 1.06
- Cc1cc2nc3c(=O)[nH]c(=O)nc-3n(CC(O)C(O)C(O)CO)c2cc1C (configuration not stated): 0.965
- Cn1cnc2c1c(=O)[nH]c(=O)n2C: 0.986
- CC(=O)NC1C(O)OC(COS(=O)(=O)O)C(OC2OC(C(=O)O)C(OC3OC(CO)C(OC4OC(C(=O)O)C(O)C(O)C4OS(=O)(=O)O)C(OS(=O)(=O)O)C3NS(=O)(=O)O)C(O)C2OS(=O)(=O)O)C1O (configuration not stated): 0.952
- CC(C)=CCC/C(C)=C/CO: 0.953
- COCC1=C(C(=O)OC(C)OC(=O)OC(C)C)N2C(=O)[C@@H](NC(=O)/C(=N\OC)c3csc(N)n3)[C@H]2SC1 (some centres not stated): 0.951
- O=C1C=CC(=O)c2ccccc21: 0.124
- COC(=O)CC1C(C)(C(=O)c2ccoc2)CC2OCC34C(CC(=O)OC)C5(C)CC36OC3(C)OC1(C(OC(C)=O)C6(OC(C)=O)C5OC(=O)C(C)C)C24O3 (configuration not stated): 0.856
- O=C1C=C(O)c2ccccc2C1=O: 0.846
- CC(=O)CCCCn1c(=O)c2c(ncn2C)n(C)c1=O: 1.04
- CNC(C)[C@@H]1CC[C@@H](N)[C@@H](OC2[C@@H](N)C[C@@H](N)[C@H](OC3OC[C@](C)(O)[C@H](NC)[C@H]3O)[C@H]2O)O1 (some centres not stated): 0.996
- NNCc1ccccc1: 0.979
- CC(C)N1C(=O)c2ccccc2NS1(=O)=O: 0.97
- C/C(=C\CO)CC[C@H](C)CCC[C@H](C)CCCC(C)C: 1.16
- COc1ccc(NS(=O)(=O)c2ccc(N)cc2)nn1: 1.05
- O=C(O)c1cccnc1C(=O)O: 0.984
- CC(C)[C@@H]1CC[C@@H](C)CC1=O: 1.01
- CNC(C)(C)Cc1ccccc1: 1.04
- COC1=CC23CCCN2CCc2cc4c(cc2C3C1O)OCO4 (configuration not stated): 1.09
- Oc1cc2c(cc1O)C(c1ccccc1)CNCC2 (configuration not stated): 0.967
- CC(C)[C@@H]1CC[C@@H](C)C[C@H]1OC(=O)c1ccccc1: 1.01
- C=CC[C@@H]1/C=C(\C)C[C@H](C)C[C@H](OC)[C@H]2O[C@@](O)(C(=O)C(=O)N3CCCC[C@H]3C(=O)O[C@H](/C(C)=C/[C@@H]3CC[C@@H](O)[C@H](OC)C3)[C@H](C)[C@@H](O)CC1=O)[C@H](C)C[C@@H]2OC: 0.514
- CC(=O)O[C@H]1CC2CCC3C(CC[C@@]4(C)C3C[C@H]([N+]3(C)CCCCC3)[C@@H]4OC(C)=O)[C@@]2(C)C[C@@H]1N1CCCCC1 (some centres not stated): 1.04
- OC[C@H]1O[C@@H](Oc2ccc(O)cc2)[C@H](O)[C@@H](O)[C@@H]1O: 1.05
- O=C(/C=C/c1ccccc1)c1ccc(O[C@@H]2O[C@H](CO)[C@@H](O)[C@H](O)[C@H]2O)cc1O: 0.925
- CC1CC(OC(=O)c2ccccc2O)CC(C)(C)C1 (configuration not stated): 0.977
- Oc1cccc2cccnc12: 0.0934
- CN1CCCCC1c1ccc(-c2cccnc2)nc1 (configuration not stated): 0.974
- CN1CCC[C@H]1c1cccnc1: 1.12
- COc1cc(O)ccc1C(C)=O: 1.04
- CC(=O)OCC1=C(C(=O)O)N2C(=O)[C@@H](NC(=O)CSc3ccncc3)[C@H]2SC1: 1.07
- COc1ccccc1OCC(O)COC(N)=O (configuration not stated): 0.972
- CC(=CC1CCC(C)C2CCC(C)=C12)C(=O)O (configuration not stated): 0.727
- O=C(/C=C/c1ccc(O)cc1)c1ccccc1O: 0.285
- O=C(/C=C/c1ccccc1)c1ccc(O)cc1O: 0.0904
- O=C(/C=C/c1ccc(O)cc1)c1ccc(O)cc1O: 1.04
- CCC1(C2=NCCN2)Cc2ccccc2O1 (configuration not stated): 1.03
- CC12CCC(O)CC1CCc1ccccc12 (configuration not stated): 0.94
- CC(=O)O[C@@H]1C2CC[C@@H]3C1(C[C@@H](O)[C@@]1(O)[C@@H](C[C@H](O)C1(C)C)[C@]3(C)O)C[C@@]2(C)O (some centres not stated): 0.984
- COC(=O)C[C@H]1C(C)(C)[C@@H](OC(C)=O)[C@@H]2CC3=C4CC(=O)O[C@@H](c5ccoc5)[C@]4(C)CCC3[C@@]1(C)C2=O (some centres not stated): 0.888

----------
# testDetails: chemical genetic growth profiling, strain panel (AID 1159580);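 also: tested at 20 µM; growth read once vehicle control cultures reached saturation at 30 °C; 1 = growth at the plate median or of vehicle wells; lower values mean less growth of the strain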
# protocolConditions: S. cerevisiae deletion strains, growth OD, locus YML124C, strain tub3
The whole screen tested about 5,500 compounds, of which about 2,000 (36%) were called active. Roughly 18% stayed inconclusive and do not appear here. Rule as the data show it: active = normalized growth mostly below about 0.91 (no sharp cut-off); inconclusive = no clear call, values can overlap the other calls; inactive = mostly above about 0.92. Some of the results follow.
Outcome codes: active, inactive

- CNC(C)(C)Cc1ccccc1: inactive
- O=C(N[C@@H](CO)[C@H](O)c1ccc([N+](=O)[O-])cc1)C(Cl)Cl: inactive
- CC(=O)OCC1=C(C(=O)O)N2C(=O)[C@@H](NC(=O)CSc3ccncc3)[C@H]2SC1: inactive
- CC1=C(C(=O)O)N2C(=O)[C@@H](NC(=O)[C@@H](N)c3ccc(O)cc3)[C@H]2SC1: inactive
- CC(NC(C)(C)C)C(=O)c1cccc(Cl)c1 (configuration not stated): inactive
- CN1C(=O)CC[C@H]1c1cccnc1: inactive
- CC(C)OC(=O)Nc1cccc(Cl)c1: inactive
- O=C1C=C(O)c2ccccc2C1=O: inactive
- O=c1c(O)c(-c2ccccc2)oc2cc(O)ccc12: active
- O=c1c(O)c(-c2ccccc2)oc2ccccc12: inactive
- O=C1c2ccccc2C(=O)c2ccccc21: inactive
- N[C@@H](C(=O)N[C@@H]1C(=O)N2C(C(=O)O)=C(Cl)CS[C@H]12)c1ccccc1: inactive

----------
# testDetails: chemical genetic growth profiling, strain panel (AID 1159580);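 also: tested at 20 µM; growth read once vehicle control cultures reached saturation at 30 °C; 1 = growth at the plate median or of vehicle wells; lower values mean less growth of the strain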
# protocolConditions: S. cerevisiae deletion strains, growth OD, locus YBR171W, strain sec66, hits give low values
Among all 5,500 compounds or so, about 2,000 (36%) were called active. Another 18% or so got no clear call; they are omitted. Some of the results follow.
assayEndpoint: normalized growth

- O=C(O)c1cccnc1C(=O)O: 0.992 (inactive)
- CC(NC(C)(C)C)C(=O)c1cccc(Cl)c1 (stereo unspecified): 0.996 (inactive)
- CC(=O)c1c(O)cc(O)cc1O: 0.964 (inactive)
- C=CC[C@@H]1/C=C(\C)C[C@H](C)C[C@H](OC)[C@H]2O[C@@](O)(C(=O)C(=O)N3CCCC[C@H]3C(=O)O[C@H](/C(C)=C/[C@@H]3CC[C@@H](O)[C@H](OC)C3)[C@H](C)[C@@H](O)CC1=O)[C@H](C)C[C@@H]2OC: 1.14 [resistant] (active)
- CC(=CC1CCC(C)C2C1=C(C)CC2O)C(=O)O (stereo unspecified): 1.02 (inactive)
- CC1(C)CC23C(=O)CCC(O)C2(C)CCC13 (stereo unspecified): 0.974 (inactive)
- O=C1C=C(O)c2ccccc2C1=O: 0.952 (inactive)
- O=C1c2ccccc2C(=O)c2ccccc21: 0.978 (inactive)
- Oc1cccc2cccnc12: 0.076 (active)
- CC(=CC1CCC(C)C2CCC(C)=C12)C(=O)O (stereo unspecified): 0.876 (active)
- CN1CCCCC1c1ccc(-c2cccnc2)nc1 (stereo unspecified): 0.971 (inactive)

----------
# testDetails: chemical genetic growth profiling, strain panel (AID 1159580);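 also: tested at 20 µM; growth read once vehicle control cultures reached saturation at 30 °C; 1 = growth at the plate median or of vehicle wells; lower values mean less growth of the strain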
# protocolConditions: S. cerevisiae deletion strains, growth OD, locus YLR039C, strain RIC1, hits give low values
Hit rate of the full screen: of about 5,500 compounds, about 2,000 (36%) were called active. Another 18% or so got no clear call; they are omitted. This is one part of the list.
Reported values of normalized growth for individual entries
assayEndpoint: normalized growth

- O=C1NCCN=C(c2ccccc2)c2ccccc21: 0.985
- O=C(NNC(=S)NC1CC2C=CC1C2)c1cccnc1 (stereo not given): 0.812
- Cc1nc(C(F)(F)F)nc(Sc2n[nH]c(-c3cc(Cl)cc(Cl)c3)n2)c1C: 1.07
- Cn1c(Sc2ccc(C(F)(F)F)cc2[N+](=O)[O-])nnc1C(F)(F)F: 1.02
- CCOC(=O)c1c[nH]c2c(F)cccc2c1=O: 1.06
- NC(Cc1ccc(Cl)cc1)C(=O)O (stereo not given): 0.994
- CCOC(=O)c1cnc(SCC(=O)c2ccc(Cl)cc2Cl)[nH]1: 0.934
- COc1cc(Cc2cnc(N)nc2N)cc(OC)c1OC: 1.03
- O=[N+]([O-])c1cc(C(F)(F)F)ccc1Sc1ccc(Cl)cc1: 0.928
- O=C(CSCc1c(Cl)cccc1Cl)NNC(=S)NC1CC2C=CC1C2 (stereo not given): 0.607
- Nc1nc(Sc2ccc(C(F)(F)F)cc2[N+](=O)[O-])n[nH]1: 1.07
- COP(=O)(NC(C)=O)SC (stereo not given): 1.05
- CC(=O)OCC1=C(C(=O)O)N2C(=O)[C@@H](NC(=O)CSc3ccncc3)[C@H]2SC1: 0.981
- CCCC(=O)Nc1ccc(OCC(O)CNC(C)C)c(C(C)=O)c1 (stereo not given): 1.06
- CCOC(=O)c1ccc(Oc2ncc(C(F)(F)F)cc2Cl)cc1: 0.889
- CCCc1ccc(-c2nc(-c3ccc(C)cc3)no2)cc1: 1.09
- COC(=O)C[C@H]1C(C)(C)[C@H](O)[C@@H]2CC3=C4CC(O)O[C@@H](c5ccoc5)[C@]4(C)CCC3[C@@]1(C)C2=O (stereo not given in full): 0.964
- O=C(NNC(=S)Nc1cccc(Cl)c1)c1cccnc1: 1.03
- Cc1ccc(O)c(C(CCN(C(C)C)C(C)C)c2ccccc2)c1 (stereo not given): 1.06
- N/C(=N/O)c1cnccc1C(F)(F)F: 1.04
- COc1ccc(-c2c(O)c3c(OC)c4c(cc3oc2=O)OC(C)(C)C=C4)cc1: 1.01
- CCCc1ccc(/C(C)=N\O)cc1: 0.777
- COc1cc([C@@H]2c3cc4c(cc3[C@H](O)[C@H]3COC(=O)[C@H]23)OCO4)cc(OC)c1OC: 1.02
- CC1CN=C(NC2CCCCC2)S1 (stereo not given): 1.05
- Nc1ccccc1C(=O)NCCc1ccc(Cl)cc1: 0.969
